Reference source for all entries: patent US6852731B2

measurement-name: melting point

Request the reported melting point associated with CN(Cc1sc2c(=O)c(C(=O)NCc3ccc(Cl)cc3)cn(C)c2c1CNS(C)(=O)=O)C[C@@H](O)c1ccccn1 [Example 92] 171 to 177 °C (dec.)

Further, for COCCOCc1c(CN(C)C[C@@H](O)c2ccco2)sc2c(=O)c(C(=O)NCc3ccc(Cl)cc3)cn(C)c12 [Example 74] ? 146 to 147 °C

Further, for CN(Cc1sc2c(=O)c(C(=O)NCc3ccc(Cl)cc3)cn(C)c2c1COCC[Si](C)(C)C)CC(O)c1cnccn1 (centres unmarked) ? 154.9 to 155.5 °C

Further, for COCCOCc1c(CN(C)CC(O)c2cccc(OC)c2)sc2c(=O)c(C(=O)NCc3ccc(Cl)cc3)cn(C)c12 (centres unmarked) [Example 73] ? 135 to 138 °C

Further, for COCCOCc1c(CN(C)CC(O)c2ncccn2)sc2c(=O)c(C(=O)NCc3ccc(Cl)cc3)cn(C)c12 (centres unmarked) [Example 77] ? 146.5 to 147.5 °C

Further, for CN(Cc1sc2c(=O)c(C(=O)NCc3ccc(Cl)cc3)cn(C)c2c1CO)CC(O)c1ccc(C#N)s1 (centres unmarked) [Example 85] ? 188 to 190 °C

Further, for CN(Cc1sc2c(=O)c(C(=O)NCc3ccc(Cl)cc3)cn(C)c2c1CN)C[C@@H](O)c1ccccn1 [Example 91] ? 144 to 148 °C

Further, for COCCOCc1c(CN(C)CC(O)c2cccnc2)sc2c(=O)c(C(=O)NCc3ccc(Cl)cc3)cn(C)c12 (centres unmarked) [Example 72] ? 129 to 132 °C

Further, for COCCOCc1c(CN(C)CC(O)c2ccccn2)sc2c(=O)c(C(=O)NCc3ccc(Cl)cc3)cn(C)c12 (centres unmarked) [Example 76] ? 150.5 to 152 °C

Further, for C=CCOCc1c(CN(C)C[C@@H](O)c2ccccn2)sc2c(=O)c(C(=O)NCc3ccc(Cl)cc3)cn(C)c12 [Example 81] ? 125 to 127 °C

Further, for CN(Cc1sc2c(=O)c(C(=O)NCc3ccc(Cl)cc3)cn(C)c2c1CO)CC(O)c1cnccn1 (centres unmarked) [Example 84] ? 211 to 213 °C
